- experiment.summary: TOR pathway LAP4-GFP level changes – S. cerevisiae, multiplex flow cytometry, primary screen (AID 1873)
- condition.details: S. cerevisiae LAP4-GFP expression, 3 h, at 10 µM, active compounds read high
Inconclusive results are not listed.
value.type: GFP response vs DMSO (%)
The reply should be a number in %, with the unit left off.

O=C(O)CCCCCN1C(=O)C(=O)/C(=C(/O)c2ccccc2)C1c1ccccc1 (centres undefined)	119
COc1ccc2oc(-c3ccco3)cc(=O)c2c1	88
Cc1ccccc1C(=O)NNc1ncnc2c1cnn2C	103
Cc1ccc(C(=O)Nc2ccc(O)cc2C(=O)O)cc1C	75.2
O=C1c2ccccc2C2(c3ccccc3)NCCN12 (centres undefined)	95.9

Field request: GFP response vs DMSO | item: CC(=O)C1=C(O)C(=O)N(Cc2cccnc2)C1c1ccc(C(C)C)cc1 (centres undefined) 113

----------
- tgt: AP-2 complex subunit beta (Homo sapiens) (UniProt P63010)
- Sequence (P63010 whole entry, looked up, one chain of several): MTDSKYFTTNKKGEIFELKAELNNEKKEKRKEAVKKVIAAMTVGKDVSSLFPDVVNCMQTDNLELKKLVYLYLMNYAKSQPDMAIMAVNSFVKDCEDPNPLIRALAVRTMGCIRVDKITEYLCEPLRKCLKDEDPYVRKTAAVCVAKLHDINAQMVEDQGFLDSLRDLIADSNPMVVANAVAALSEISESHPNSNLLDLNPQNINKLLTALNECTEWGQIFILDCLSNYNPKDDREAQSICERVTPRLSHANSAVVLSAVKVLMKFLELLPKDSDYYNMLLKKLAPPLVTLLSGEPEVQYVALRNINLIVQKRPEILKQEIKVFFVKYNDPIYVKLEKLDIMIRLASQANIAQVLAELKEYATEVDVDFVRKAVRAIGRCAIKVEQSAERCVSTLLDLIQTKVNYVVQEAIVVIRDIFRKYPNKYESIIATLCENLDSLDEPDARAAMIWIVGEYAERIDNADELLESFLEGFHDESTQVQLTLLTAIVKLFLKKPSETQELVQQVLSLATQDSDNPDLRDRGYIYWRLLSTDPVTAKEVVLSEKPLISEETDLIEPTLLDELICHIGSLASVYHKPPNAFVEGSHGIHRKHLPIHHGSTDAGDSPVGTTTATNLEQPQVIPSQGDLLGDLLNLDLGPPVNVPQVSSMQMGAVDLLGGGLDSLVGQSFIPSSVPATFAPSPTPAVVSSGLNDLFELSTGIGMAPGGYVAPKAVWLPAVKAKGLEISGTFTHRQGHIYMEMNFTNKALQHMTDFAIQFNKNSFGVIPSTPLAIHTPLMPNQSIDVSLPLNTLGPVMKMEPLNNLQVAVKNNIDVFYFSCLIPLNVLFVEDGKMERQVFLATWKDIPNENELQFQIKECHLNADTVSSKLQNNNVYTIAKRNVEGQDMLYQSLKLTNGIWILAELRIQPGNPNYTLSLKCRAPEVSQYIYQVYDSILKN
- experiment.summary: beta-arrestin/AP2 interaction blockers – biochemical, validation set, GST-AP2 beads, flow cytometry, pilot screen (AID 504541);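 further: AP2 carries R879A mutation and is captured from E. coli lysate; bead-bound FITC arrestin peptide fluorescence measuring arrestin peptide binding to AP2; 0% = DMSO wells and 100% = excess unlabeled arrestin peptide control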
- condition.details: FITC arrestin peptide, at 10 µM, active compounds read high, AP2 beta2 appendage fragment, R879A mutant
This listing pairs molecules with measured inhibition.
The reply should be a number in %, with the unit left off.

COc1cc(NC(=S)NC(=O)c2cccs2)ccc1NC(=O)C(C)C	-6.94
OCCC1CN(Cc2nc(-c3ccccc3)cs2)CCN1Cc1ccc(F)cc1 (stereo unspecified)	-6.97
Cc1coc2c1c(C)cc1oc(=O)c(Cc3ccccc3)c(C)c12	16.9
O=C(Nc1ccc(N2CCOCC2)cc1)c1ccc(-c2ccccc2[N+](=O)[O-])o1	-4.06
CCN(CCCc1ccccc1)CCCc1ccccc1	34.3

Field request: inhibition | item: CC(=O)c1c[nH]c2ccc(C)cc2c1=O 34.1

----------
This listing pairs compounds with measured superoxide response (% of plate).
- experiment.summary: calorie-restriction mimetic ROS inhibitors, yeast – validation compound set, pilot screen (AID 2706);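 further: yeast exposed to compound for one week at 30 degrees C before staining; 100% = mean of all compound wells on the same plate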
- condition.details: S. cerevisiae aging, superoxide DHE fluorescence; at 10 µM; active compounds read low
The reply should be a number in %, with the unit left off.

Field request: superoxide response (% of plate) | item: O=C(CCc1ccccc1)Nc1ccccc1C(F)(F)F 96.3

Field request: superoxide response (% of plate) | item: Nc1ccc(-c2nc3ncccc3o2)c(Cl)c1 118

Field request: superoxide response (% of plate) | item: c1ccc(Nc2cccc3c(Nc4ccccc4)cccc23)cc1 98.3

Field request: superoxide response (% of plate) | item: Cc1nc(N)nc2c1CCCC2 102

----------
This listing pairs compounds with measured binding (% of control).
- System: anti-desmoglein-3 scFv antibody binding to human DSG3
- experiment.summary: blockers of pathogenic pemphigus antibody–desmoglein-3 binding – biochemical, validation compound set, bead-based, flow cytometry, pilot screen (AID 588368);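 further: signal is the median channel fluorescence of bead-bound GFP antibody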
- condition.details: Protein G beads, DSG3-Fc, scFv-GFP binding, at 10 µM, active compounds read low
The reply should be a number in %, with the unit left off.

Example entries and their recorded answers appear below.
N#CCC(N)=C(C#N)C#N	101
NS(=O)(=O)c1cc2c(cc1C(F)(F)F)NC(Cc1ccccc1)NS2(=O)=O (stereo not drawn)	97.4
COc1ccc2oc(=O)c(C(=O)Nc3ccccc3-c3ccccc3)cc2c1	97.4
O=C(O)c1cnccn1	104
Cc1nc2ccccc2n1CC(O)Cn1c2ccccc2c2ccccc21 (stereo not drawn)	104
c1ccc(Nc2ccccn2)nc1	103
O=C(Nc1ccc(Cl)cn1)Nc1ccccc1Cl	105
S=C(c1ccc2c(c1)OCO2)N1CCCCC1	99.8

Field request: binding (% of control) | item: CCOC(=O)C1C(=O)OC2(CCOC(C)(C)C2)C1C(=O)OCC (stereo not drawn) 102

Field request: binding (% of control) | item: COc1ccc(-c2nc3c(=O)n(C)c(=O)[nH]c3n2CCc2ccccc2)cc1 99.3

Field request: binding (% of control) | item: CCn1nc(C(=O)O)c(=O)c2cc3c(cc21)OCO3 98.4

Field request: binding (% of control) | item: Nc1nc(Cl)nc2c1ncn2[C@H]1C[C@H](O)[C@@H](CO)O1 103

Field request: binding (% of control) | item: Oc1ccccc1OCCOc1ccccc1OCCOc1ccccc1O 112

Field request: binding (% of control) | item: COc1ccc(C(=O)Nc2ccccc2C(=O)NC(Cc2c[nH]c3ccccc23)C(=O)O)cc1 (stereo not drawn) 99.8

Field request: binding (% of control) | item: CN(C)CCOC(=O)C(c1ccccc1)C1(O)CCCC1 (stereo not drawn) 103

Field request: binding (% of control) | item: CC(C)Oc1ccc(C2CC(=O)N(c3ccc(C(=O)O)cc3)C2=O)cc1 (stereo not drawn) 105

Field request: binding (% of control) | item: Nc1nc(Cl)nc2c1ncn2[C@@H]1O[C@H](CO)[C@@H](O)[C@H]1O 104

Field request: binding (% of control) | item: O=C(O)CCNC(=O)c1ccccc1 98.7

Source of measurements: PubChem BioAssay
